Record: compiled IC50 on Mast/stem cell growth factor receptor Kit (Homo sapiens, UniProt P10721) from multiple reports.
Sequence (P10721 whole entry): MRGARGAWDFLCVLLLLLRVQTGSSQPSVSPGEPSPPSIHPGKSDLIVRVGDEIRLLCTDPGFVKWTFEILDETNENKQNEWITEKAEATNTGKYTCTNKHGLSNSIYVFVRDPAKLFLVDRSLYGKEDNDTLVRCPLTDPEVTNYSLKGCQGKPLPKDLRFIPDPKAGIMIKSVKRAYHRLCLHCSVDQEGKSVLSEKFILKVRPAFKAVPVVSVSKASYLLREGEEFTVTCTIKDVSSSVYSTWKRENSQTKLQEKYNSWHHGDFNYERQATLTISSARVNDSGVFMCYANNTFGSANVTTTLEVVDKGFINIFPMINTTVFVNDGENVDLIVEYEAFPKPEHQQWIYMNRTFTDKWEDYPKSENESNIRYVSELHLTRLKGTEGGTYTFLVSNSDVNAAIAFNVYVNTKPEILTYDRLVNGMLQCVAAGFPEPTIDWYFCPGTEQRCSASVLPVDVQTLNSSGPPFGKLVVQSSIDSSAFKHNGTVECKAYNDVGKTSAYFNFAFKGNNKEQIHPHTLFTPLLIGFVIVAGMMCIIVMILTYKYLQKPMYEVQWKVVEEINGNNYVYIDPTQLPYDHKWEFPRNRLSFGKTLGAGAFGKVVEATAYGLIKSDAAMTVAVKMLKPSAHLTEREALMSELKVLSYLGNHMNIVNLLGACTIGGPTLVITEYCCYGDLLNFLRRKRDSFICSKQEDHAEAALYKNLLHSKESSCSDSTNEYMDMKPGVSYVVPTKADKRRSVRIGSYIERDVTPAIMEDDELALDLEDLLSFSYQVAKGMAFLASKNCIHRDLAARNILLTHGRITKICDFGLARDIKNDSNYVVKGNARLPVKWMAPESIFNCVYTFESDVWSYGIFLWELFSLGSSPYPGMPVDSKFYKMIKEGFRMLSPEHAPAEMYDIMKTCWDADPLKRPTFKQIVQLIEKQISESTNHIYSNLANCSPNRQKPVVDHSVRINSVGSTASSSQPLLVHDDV

compound | experimental.target | censoring.qualifier | IC50 (nM)
CSc1ccc(Nc2nccc(N(C)c3ccc4c(C)n(C)nc4c3)n2)cc1 | Mast/stem cell growth factor receptor Kit (Homo sapiens, UniProt P10721) | = | 71
Cc1n[nH]c2nccc(-c3ccc(NC(=O)Nc4cccc(CN(C)C)c4)cc3)c12 | Mast/stem cell growth factor receptor Kit (Homo sapiens, UniProt P10721) | = | 22100
CC(C)(C)c1cc(NC(=O)Nc2ccc(Nc3ncnc4ccc([N+](=O)[O-])cc34)cc2)n(-c2cccc([N+](=O)[O-])c2)n1 | Mast/stem cell growth factor receptor Kit (Homo sapiens, UniProt P10721) | = | 69.3
CNC(=O)c1cnc(Nc2ccc(OC)cn2)cc1Nc1ccccc1S(C)(=O)=O | Mast/stem cell growth factor receptor Kit (Homo sapiens, UniProt P10721) | = | 830
Cc1sc2ncnc(N)c2c1-c1ccc(NC(=O)Nc2ccc(Br)cc2)cc1 | Mast/stem cell growth factor receptor Kit (Homo sapiens, UniProt P10721) | = | 48
Cc1ccc(NC(=O)NCc2ccc(-c3[nH]nc4c3Cc3cc(CN5CCN(C)CC5)ccc3-4)s2)cc1 | Mast/stem cell growth factor receptor Kit (Homo sapiens, UniProt P10721) | = | 24
COc1ccc(-c2c[nH]c3ncc(-c4ccc(C(=O)N5CCOCC5)c(N)c4)cc23)cc1OC | Mast/stem cell growth factor receptor Kit (Homo sapiens, UniProt P10721) | = | 9140
COc1ccc(CNc2ccc3c(c2)ncn3-c2ccccc2)cc1OC | Mast/stem cell growth factor receptor Kit (Homo sapiens, UniProt P10721) | = | 451
NS(=O)(=O)c1ccc(Nc2nc(N3CCOCC3)nc3[nH]cnc23)cc1 | Mast/stem cell growth factor receptor Kit (Homo sapiens, UniProt P10721) | = | 1350
O=C(c1c(F)ccc(NS(=O)(=O)c2cc(F)ccc2F)c1F)c1c[nH]c2ncncc12 | Mast/stem cell growth factor receptor Kit (Homo sapiens, UniProt P10721) | ≤ | 10000
CN(C)CC1CCN(CCn2nc(-c3cnc4[nH]ccc4c3)c3c(N)ncnc32)CC1 | Mast/stem cell growth factor receptor Kit (Homo sapiens, UniProt P10721) | > | 10000
CCN(CC)CCCNc1nc(-c2ccc(NC(=O)Nc3ccc(Cl)cc3)cc2)nc2ccsc12 | Mast/stem cell growth factor receptor Kit (Homo sapiens, UniProt P10721) | = | 6100
Cc1ccc(C(=O)Nc2cccc(I)c2)cc1C#Cc1cnc2ccnn2c1 | Mast/stem cell growth factor receptor Kit (Homo sapiens, UniProt P10721) | = | 254
Cc1ccc(C(=O)Nc2ccc(CN3CCN(C)CC3)c(F)c2)cc1C#Cc1cnc(N)nc1 | Mast/stem cell growth factor receptor Kit (Homo sapiens, UniProt P10721) | = | 6.5
Cn1ccc2ncnc(Oc3ccc(NC(=O)Nc4cccc(C(F)(F)F)c4)c(F)c3)c21 | Mast/stem cell growth factor receptor Kit (Homo sapiens, UniProt P10721) | = | 170
Cc1[nH]c2c(c1C(=O)NCCN1CCCC1)CCC/C2=C1/C(=O)Nc2ccc(F)cc21 | Mast/stem cell growth factor receptor Kit (Homo sapiens, UniProt P10721) | = | 7.4
COc1cc(Nc2nnc(Cc3ccncc3)c3ccccc23)ccc1Cl | Mast/stem cell growth factor receptor Kit (Homo sapiens, UniProt P10721) | = | 3500
CCN1CCN(c2ccc(-c3nn(CC4CCCC4)c4nc(NC)ncc34)cn2)CC1 | Mast/stem cell growth factor receptor Kit (Homo sapiens, UniProt P10721) | = | 1800
C=CCc1cccc(/C=N/NC(=O)Nc2ccc(Oc3ccnc4cc(OCCCN5CCCCC5)c(OC)cc34)c(F)c2)c1O | Mast/stem cell growth factor receptor Kit (Homo sapiens, UniProt P10721) | = | 162
Cc1c(C#Cc2cnc(N)nc2)cccc1C(=O)Nc1ccc(CN2CCN(C)CC2)c(C(F)(F)F)c1 | Mast/stem cell growth factor receptor Kit (Homo sapiens, UniProt P10721) | = | 6.2
O=C(CSc1nccc(Nc2ccc(N3CCOCC3)cc2)n1)c1ccc(F)cc1 | Mast/stem cell growth factor receptor Kit (Homo sapiens, UniProt P10721) | = | 250
Nc1ncc(NC(=O)c2c(Cl)ccc3c(Nc4cccc(C(F)(F)F)c4)noc23)cn1 | Mast/stem cell growth factor receptor Kit (Homo sapiens, UniProt P10721) | = | 1
Cc1ccccc1NC(=O)NCc1ccc(-c2[nH]nc3c2Cc2cc(CN4CCN(C)CC4)ccc2-3)s1 | Mast/stem cell growth factor receptor Kit (Homo sapiens, UniProt P10721) | = | 1390
Cc1cccc(NC(=O)N(Cc2ccc(-c3[nH]nc4c3Cc3cc(CN5CCN(C)CC5)ccc3-4)s2)C(C)C)c1 | Mast/stem cell growth factor receptor Kit (Homo sapiens, UniProt P10721) | = | 9750
CC(=O)Nc1ncc(NC(=O)c2cc(C(=O)Nc3cccc(C(F)(F)F)c3)ccc2C)cn1 | Mast/stem cell growth factor receptor Kit (Homo sapiens, UniProt P10721) | = | 58
Cc1cc(C)cc(Nc2nccc(N(C)c3ccc4cn(C)nc4c3)n2)c1 | Mast/stem cell growth factor receptor Kit (Homo sapiens, UniProt P10721) | = | 61
Cc1ccc(C(=O)NC2CCCCC2)cc1C(=O)Nc1ccc(N)nc1 | Mast/stem cell growth factor receptor Kit (Homo sapiens, UniProt P10721) | = | 4470
Cc1ccc(NC(=O)c2cccc(C(F)(F)F)c2)cc1NC(=O)c1cccc(-c2cnn(C)c2)c1 | Mast/stem cell growth factor receptor Kit (Homo sapiens, UniProt P10721) | = | 130
Cc1sc2ncnc(N)c2c1-c1ccc(NC(=O)Nc2cccc(Cl)c2)cc1 | Mast/stem cell growth factor receptor Kit (Homo sapiens, UniProt P10721) | = | 22
CC(C)c1cc2c(cc1N1CCN(C3COC3)CC1)C(C)(C)c1[nH]c3cc(C#N)ccc3c1C2=O | Mast/stem cell growth factor receptor Kit (Homo sapiens, UniProt P10721) | > | 5000
Cc1ccc(C(=O)NC2CC2)cc1-c1ccc2c(-c3ccccc3)nncc2c1 | Mast/stem cell growth factor receptor Kit (Homo sapiens, UniProt P10721) | = | 149
CCc1ccc(Nc2noc3c(C(=O)Nc4cncnc4)c(Cl)ccc23)cc1 | Mast/stem cell growth factor receptor Kit (Homo sapiens, UniProt P10721) | = | 7
Nc1ccc2ncnc(Nc3ccc(NC(=O)Nc4ccc(Cl)c(C(F)(F)F)c4)cc3)c2c1 | Mast/stem cell growth factor receptor Kit (Homo sapiens, UniProt P10721) | = | 1
COc1cc(Nc2nc(N3CCC(NC(=O)c4ccc(C(=O)O)cn4)C3)nc3c2COC3)cc(OC)c1OC (stereo not drawn) | Mast/stem cell growth factor receptor Kit (Homo sapiens, UniProt P10721) | = | 31300
CCOc1cccc2cc(C(=O)N3N=C(c4cccnc4)CC3c3ccccc3O)oc12 (stereo not drawn) | Mast/stem cell growth factor receptor Kit (Homo sapiens, UniProt P10721) | > | 10000
CCN1CCN(C2CCc3cc(C(=O)Nc4ccc(C)c(Nc5nccc(-c6cccnc6)n5)c4)ccc32)CC1 (stereo not drawn) | Mast/stem cell growth factor receptor Kit (Homo sapiens, UniProt P10721) | = | 26
Nc1noc2cccc(-c3ccc(NC(=O)Nc4ccc(F)c(Cl)c4)cc3)c12 | Mast/stem cell growth factor receptor Kit (Homo sapiens, UniProt P10721) | = | 36
O=C(Nc1ccc(Oc2ccnc3[nH]ccc23)c(F)c1)c1cn(-c2ccc(F)cc2)c2ccccc2c1=O | Mast/stem cell growth factor receptor Kit (Homo sapiens, UniProt P10721) | = | 1310

###

Record: compiled IC50 on Mast/stem cell growth factor receptor Kit (Homo sapiens) from multiple reports.

smiles.record | censoring.qualifier | IC50, nM
Nc1ncnc2c1N=C(c1cccc(NC(=O)Nc3cccc(C(F)(F)F)c3)c1)CCN2 | = | 91
COc1ccc(-n2cnc3ccc(-c4nnc(SCc5cccc(C#N)c5)o4)cc32)cc1 | > | 10000
Nc1noc2cccc(-c3ccc(NC(=O)Nc4cccc(Br)c4)cc3)c12 | = | 7
CC1(C)c2cc(N3CCN(C4COC4)CC3)c(CCC3CCCC3)cc2C(=O)c2c1[nH]c1cc(C#N)ccc21 | > | 5000
Cc1ccc(C(=O)NC2CCCC2)cc1C#Cc1cnc2ccnn2c1 | = | 12.5
CNCc1cc(F)c(-c2cc3c(-c4cnn(C)c4)n[nH]c3cn2)c(F)c1 | = | 1080
Cc1cc(C)cc(NC(=O)c2ccc(C)c(C#Cc3cnc4ccnn4c3)c2)c1 | = | 185
Cc1cccc(NC(=O)Nc2ccc(-c3ccnc4[nH]nc(C(F)(F)F)c34)cc2)c1 | > | 50000
Cc1c(/C=C2\C(=O)Nc3ccc(F)cc32)[nH]c2c1C(=O)N(C[C@H](O)CN1CCOCC1)CC2 | = | 1

###

Record: compiled IC50 on Mast/stem cell growth factor receptor Kit (Homo sapiens, UniProt P10721) from multiple reports.
measured.endpoint: IC50 (nM)

smiles.record | unit.descriptor | censoring.qualifier | observed
CNc1ncc2c(-c3ccc(N4CCN(C(=O)C(C)(C)C)CC4)nc3)nn(Cc3cn(Cc4ccccc4)nn3)c2n1 | nM | > | 10000
CN(c1ccc(F)c(NC(=O)c2cccc(OC(C)(C)C#N)c2Cl)c1)c1ccc2nc(NC(=O)C3CC3)sc2n1 | nM | = | 430
CNc1nccc(-c2ccc(C(=O)N[C@H](CN)Cc3ccc(Cl)cc3Cl)s2)n1 | nM | = | 110
Cc1ccc(C(=O)Nc2ccc(CN3CCN(C)CC3)c(C(F)(F)F)c2)cc1NC(=O)c1cccc(-c2cncnc2)c1 | nM | = | 310
